# system-tested: T1, hK1 (human tissue kallikrein 1), recombinant (human, UniProt P06870 25-262)
# T1 construct: Expressed in P. pastoris from KLK1 cDNA and purified; enzymatically active; also called KLK1; Recombinant (Pichia) Kallikrein
# experiment-description: SPR
parameter-measured: koff (s⁻¹)
Output spec: scalar in s⁻¹, unitless text.

Bench note: what koff did M0102-H02 (Fab, V domains shown) VH: EVQLLESGGGLVQPGGSLRLSCAASGFTFSMYRMFWVRQAPGKGLEWVSVIGPSGGQTAYADSVKGRFTISRDNSKNTLYLQMNSLRAEDTAVYYCARVGVWYGMDVWGQGTTVTVSS VL: DIQMTQSPATLSLSPGERAALSCRASQSVSNFLAWYQQKPGQAPRLLIYGASNRATDIPARFSGSGSGTDFTLTISSLEPEDFATYYCQQANSFPLTFGGGTKVEIKR show?
0.0105

Bench note: what koff did M0131-A03 (Fab, V domains shown) VH: EVQLLESGGGLVQPGGSLRLSCAASGFTFSWYTMGWVRQAPGKGLEWVSVIYPSGGMTKYADSVKGRFTISRDNSKNTLYLQMNSLRAEDTAVYYCARTSGGTPWGFWGQGTLVTVSS VL: AQYELTQPASVSGSPGQSITISCTGTNTDVGGYNYVSWYQQYPGKAPKLMIYEVNHRPSGVSNRFSGSKSGNTASLTISGLQAEDEADYYCSSYTYRNTYVFGTGTKVTVLG show?
0.046

Bench note: what koff did M0099-C12 (Fab, V domains shown) VH: EVQLLESGGGLVQPGGSLRLSCAASGFTFSRYAMHWVRQAPGKGLEWVSSIWPSGGATFYADSVKGRFTISRDNSKNTLYLQMNSLRAEDTAVYYCATSPTLNAFHIWGQGTMVTVSS VL: AQSVLTQPASVSGSPGQSITISCTGTTSDVGGYKYVSWYQHHPGKVPKLIIYEVNHRPSGVSHRFSGSKSGNTASLIISALQAEDEADYYCYSYTSDSTPYVFGTGTKVTVL show?
0.00461

From: patent US7329737
